Source of measurements: the RNAGym collection of RNA variant scans (doi:10.7554/elife.90254)

B1: LINE1-mini (parent)
chain: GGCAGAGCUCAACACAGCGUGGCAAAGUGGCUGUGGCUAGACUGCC

Variants of: B1
TEST_NAME: self-cleavage, relative activity (ratio to wild type); higher = more cleavage; in vitro, sequencing; the parent is a self-cleaving ribozyme
Returns condition met if the recorded self-cleavage is greater than or equal to 0.09, and condition not met otherwise.

Example cases with answers are listed next.
INSERT INTO results (query_sequence, label_class) VALUES
  ('GGCAGAGCUCAUCACAGCGUGGCAAAGGGGCUGUGGCUAGACUGCC [A12U U28G]', 'condition met'),
  ('GGCAGAGCUCAACACAACGUGGCAAAUUGGCUGUGGCUAGACUGCC [G17A G27U]', 'condition met'),
  ('GGCAGAGCUCAACACAGCGUGGCAAAGUGGCUGUGACUAAACUGCC [G36A G40A]', 'condition met'),
  ('GGCAGAGCUCAACACAGCGUGGCAAAGUGGGUGUGGCUAGAAUGCC [C31G C42A]', 'condition not met');

For this variant, is measured self-cleavage 0.09 or higher? GGCAGAGCUUAACACAGCGUGGCAAAGUGGCUGUGGCUAGAGUGCC [C10U C42G]
condition not met

Subsequent entry: GGCAGAGCUCAACACAGCGUAGCAAAGUGGCUGUGGCUAGAGUGCC [G21A C42G]
condition not met

Subsequent entry: GGCAGAGCUCAACUCAGCGUGGCAAAGUGGCUGUGGCGAGACUGCC [A14U U38G]
condition not met

Subsequent entry: GGCAGAGCUGAACCCAGCGUGGCAAAGUGGCUGUGGCUAGACUGCC [C10G A14C]
condition not met

Subsequent entry: GGCAGAGCUCAACACAGCGUGGCAAAGUGGCUGUGCCUAGACCGCC [G36C U43C]
condition not met

Subsequent entry: GGCAGAGCUCAACACAGCGUGGCAAAGUGGCUGUGGCUAGAUUGCU [C42U C46U]
condition met

Subsequent entry: GGCAGCGCUCAACACAGCGUGGCAAAGUGGCUGGGGCUAGACUGCC [A6C U34G]
condition met
